Consider the following compounds and their measured AC50 readings.
target: Cytochrome P450 2C19 (Homo sapiens); assay: Cytochrome panel assay with activity outcomes. Panel member name: p450-cyp2c19 Compounds with AC50 equal or less than 10 uM are considered active; type: functional; settings: read-out: AC50
Sequence (P33261 whole entry): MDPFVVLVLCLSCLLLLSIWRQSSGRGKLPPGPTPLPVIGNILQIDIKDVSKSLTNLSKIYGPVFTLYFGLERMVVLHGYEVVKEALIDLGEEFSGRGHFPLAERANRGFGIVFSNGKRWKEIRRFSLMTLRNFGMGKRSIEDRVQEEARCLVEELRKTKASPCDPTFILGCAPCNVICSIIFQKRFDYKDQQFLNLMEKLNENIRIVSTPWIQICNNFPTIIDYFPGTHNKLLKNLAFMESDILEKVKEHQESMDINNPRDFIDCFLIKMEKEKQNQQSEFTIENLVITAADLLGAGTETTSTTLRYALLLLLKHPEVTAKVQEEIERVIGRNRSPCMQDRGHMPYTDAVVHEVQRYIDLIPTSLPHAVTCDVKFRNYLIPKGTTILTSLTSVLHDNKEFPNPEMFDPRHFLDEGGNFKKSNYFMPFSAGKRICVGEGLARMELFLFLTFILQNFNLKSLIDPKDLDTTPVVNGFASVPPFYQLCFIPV
recorded-metric: AC50

- compound: "CCn1c(S)nnc1CCNC(=O)c1ccc(Cl)cc1Cl"
  reported: "10 µM (inconclusive)"
- compound: "CC1(C)C(=O)N=C2C1=C(O)C(=O)c1ccccc12"
  reported: "31.6 µM (inconclusive)"
- compound: "CC1=C(C(=O)OCc2ccccc2)C(c2ccccc2)NC(=O)N1CCCCCC(=O)O (stereo not drawn)"
  reported: "39.8 µM (inconclusive)"

---

target: UniProt:P08684; details: Potency
Sequence (P08684 whole entry): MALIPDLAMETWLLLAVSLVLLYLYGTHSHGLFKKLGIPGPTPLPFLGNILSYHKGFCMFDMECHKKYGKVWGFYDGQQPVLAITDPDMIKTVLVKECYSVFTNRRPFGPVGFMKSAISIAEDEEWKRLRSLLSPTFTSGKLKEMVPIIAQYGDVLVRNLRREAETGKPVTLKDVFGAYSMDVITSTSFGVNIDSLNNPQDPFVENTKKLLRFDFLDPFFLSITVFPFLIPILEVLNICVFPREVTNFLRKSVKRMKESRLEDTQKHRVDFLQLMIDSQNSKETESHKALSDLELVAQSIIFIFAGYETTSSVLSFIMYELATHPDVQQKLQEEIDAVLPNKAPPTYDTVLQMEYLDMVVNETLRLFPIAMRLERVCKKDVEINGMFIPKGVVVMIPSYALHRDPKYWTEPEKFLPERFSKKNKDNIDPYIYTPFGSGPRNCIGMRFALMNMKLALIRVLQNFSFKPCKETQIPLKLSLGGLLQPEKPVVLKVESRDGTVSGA
AC50 reference
recorded-metric: AC50

- compound: "CC(=O)OCC1OC(C#Cc2ccc(Br)cc2)C=CC1OC(C)=O (centres undefined)"
  recorded-metric: "AC50"
  reported: "3.16 µM (inconclusive)"
- compound: "N=C1Sc2ccccc2C2=NCCCN12"
  recorded-metric: "AC50"
  reported: "25.1 µM (inconclusive)"
- compound: "Cc1cc(C)c(N)cc1C"
  recorded-metric: "AC50"
  reported: "39.8 µM (inconclusive)"
- compound: "O=c1c(-c2cc(O)c(O)c(O)c2)coc2cc(O)c(O)c(O)c12"
  recorded-metric: "AC50"
  reported: "25.1 µM (inconclusive)"

---

Target: Hexokinase (Trypanosoma brucei, UniProt Q38C41)
Sequence (Q38C41 whole entry): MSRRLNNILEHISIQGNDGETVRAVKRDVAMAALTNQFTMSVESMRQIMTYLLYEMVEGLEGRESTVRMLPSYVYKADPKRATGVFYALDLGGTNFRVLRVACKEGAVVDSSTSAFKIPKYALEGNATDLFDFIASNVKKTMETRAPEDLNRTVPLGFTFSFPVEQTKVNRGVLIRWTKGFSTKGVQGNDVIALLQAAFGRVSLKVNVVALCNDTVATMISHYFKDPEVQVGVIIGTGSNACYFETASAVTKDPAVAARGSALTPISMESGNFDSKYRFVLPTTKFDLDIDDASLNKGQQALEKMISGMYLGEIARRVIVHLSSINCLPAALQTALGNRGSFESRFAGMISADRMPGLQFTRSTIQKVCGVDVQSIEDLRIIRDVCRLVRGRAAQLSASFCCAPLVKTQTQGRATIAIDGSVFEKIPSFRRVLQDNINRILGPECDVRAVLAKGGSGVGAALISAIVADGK
Assay: Confirmation assay for inhibitors of Trypanosoma brucei hexokinase 1-Analogue-first series. [Related pubchem assays (depositor defined):AID1430, AID1632, AID2516, AID2560, AID2579, AID2600, AID449725, AID492951]
Assay type: functional
Active and inactive are the calls of the source.
recorded-metric: IC50

- smi: "N#Cc1ccccc1NC(=O)Cn1sc2ccccc2c1=O"
  target-of-assay: "Hexokinase (Trypanosoma brucei, UniProt Q38C41)"
  reported: "7.21 µM (active)"
- smi: "O=c1c2ccccc2sn1-c1cccc(Cl)c1"
  target-of-assay: "Hexokinase (Trypanosoma brucei, UniProt Q38C41)"
  reported: "1.9 µM (active)"
- smi: "Cc1ccc(C(=O)Nc2cc(Cl)ccc2C(=O)O)c(C)c1"
  target-of-assay: "Hexokinase (Trypanosoma brucei, UniProt Q38C41)"
  reported: "> 25 µM (inactive)"
- smi: "O=C(Cn1sc2ccccc2c1=O)N1CCOCC1"
  target-of-assay: "Hexokinase (Trypanosoma brucei, UniProt Q38C41)"
  reported: "> 25 µM (inactive)"
